Assay: Pharmacokinetics in male CD1 mice, IV administration
Assay type: in vivo, mouse
Settings: mouse, IV 5 mg/kg, whole blood
Listed molecules paired with reported clearance

# compound.structure, clearance, mL/min/kg
records = [
    ("Cc1sc2c(c1C)C(c1ccc(C#N)cc1)=N[C@@H](CC(=O)NCC(F)F)c1nnc(C)n1-2", 23.7),
    ("Cc1sc2c(c1C)C(c1ccc(C#N)cc1)=N[C@@H](CC(=O)NC[C@H](C)O)c1nnc(C)n1-2", 29.3),
    ("COC(=O)C[C@@H]1N=C(c2ccc(Cl)cc2)c2c(sc(CC#N)c2C)-n2c(C)nnc21", 20.8),
]

* * *

Below, each entry is listed alongside its reported AUC(0-inf).
Assay: Pharmacokinetics in male CD1 mice, oral administration
Assay type: in vivo, mouse
Details: mouse, oral 10 mg/kg, whole blood

# compound, reading.unit, AUC(0-inf)
measured = [
    ("Cc1sc2c(c1C)C(c1ccc(C#N)cc1)=N[C@@H](CC(=O)NCC(F)F)c1nnc(C)n1-2 [Compound 109]", "µg·h/mL", 3.78),
    ("Cc1sc2c(c1C)C(c1ccc(C#N)cc1)=N[C@@H](CC(=O)NC[C@H](C)O)c1nnc(C)n1-2 [Compound 107]", "µg·h/mL", 0.532),
    ("COC(=O)C[C@@H]1N=C(c2ccc(Cl)cc2)c2c(sc(CC#N)c2C)-n2c(C)nnc21 [Compound 200]", "µg·h/mL", 6.04),
]

* * *

Test: Pharmacokinetics in male CD1 mice, IV administration
Type: in vivo, mouse
Settings: mouse, IV 5 mg/kg, whole blood

# compound.structure, MRT inf (min)
records = [
    ("Cc1sc2c(c1C)C(c1ccc(C#N)cc1)=N[C@@H](CC(=O)NC[C@H](C)O)c1nnc(C)n1-2", 20.2),
    ("COC(=O)C[C@@H]1N=C(c2ccc(Cl)cc2)c2c(sc(CC#N)c2C)-n2c(C)nnc21", 76.8),
    ("Cc1sc2c(c1C)C(c1ccc(C#N)cc1)=N[C@@H](CC(=O)NCC(F)F)c1nnc(C)n1-2", 49.7),
]

* * *

Target: BRDT(1) (Homo sapiens (Human))
Doc: threshold 0.6 µM (exclusive). Items with IC50 beneath it return Fulfilled; others return Not fulfilled.

# molecule, system.tested, qualitative.label
measured = [
    ("Cc1sc2c(c1C)C(c1ccc(C#N)cc1)=N[C@@H](CC(=O)NC[C@@H](C)O)c1nnc(C)n1-2 [Compound 108]", "BRDT(1) (Homo sapiens (Human))", "Fulfilled"),
    ("Cc1c(CC#N)sc2c1C(c1ccc(Cl)cc1)=N[C@@H](CC(=O)NC[C@@H](C)O)c1nnc(C)n1-2 [Compound 208]", "BRDT(1) (Homo sapiens (Human))", "Not fulfilled"),
    ("Cc1sc2c(c1C)C(c1ccc(C#N)cc1)=N[C@@H](CC(=O)NCC(F)F)c1nnc(C)n1-2 [Compound 109]", "BRDT(1) (Homo sapiens (Human))", "Fulfilled"),
    ("Cc1sc2c(c1C)C(c1ccc(C#N)cc1)=N[C@@H](CC(N)=O)c1nnc(C)n1-2 [Compound 105]", "BRDT(1) (Homo sapiens (Human))", "Fulfilled"),
    ("Cc1sc2c(c1C)C(c1ccc(C#N)cc1)=N[C@@H](CC(=O)NCCCN1CCN(C)CC1)c1nnc(C)n1-2 [Compound 103]", "BRDT(1) (Homo sapiens (Human))", "Fulfilled"),
    ("COC(=O)C[C@@H]1N=C(c2ccc(Cl)cc2)c2c(sc(CC#N)c2C)-n2c(C)nnc21 [Compound 200]", "BRDT(1) (Homo sapiens (Human))", "Fulfilled"),
    ("Cc1sc2c(c1C)C(c1ccc(C#N)cc1)=N[C@@H](CC(=O)NCCO)c1nnc(C)n1-2 [Compound 106]", "BRDT(1) (Homo sapiens (Human))", "Fulfilled"),
    ("Cc1sc2c(c1C)C(c1ccc(C#N)cc1)=N[C@@H](CC(=O)N1CCOCC1)c1nnc(C)n1-2 [Compound 110]", "BRDT(1) (Homo sapiens (Human))", "Fulfilled"),
    ("Cc1c(CC#N)sc2c1C(c1ccc(Cl)cc1)=N[C@@H](CC(=O)NCCO)c1nnc(C)n1-2 [Compound 206]", "BRDT(1) (Homo sapiens (Human))", "Not fulfilled"),
    ("Cc1sc2c(c1C)C(c1ccc(C#N)cc1)=N[C@@H](CC(=O)NC[C@H](C)O)c1nnc(C)n1-2 [Compound 107]", "BRDT(1) (Homo sapiens (Human))", "Fulfilled"),
    ("Cc1c(CC#N)sc2c1C(c1ccc(Cl)cc1)=N[C@@H](CC(=O)N1CCOCC1)c1nnc(C)n1-2 [Compound 210]", "BRDT(1) (Homo sapiens (Human))", "Not fulfilled"),
]
